test system: Pseudomonas aeruginosa (ATCC27853); assay: Biofilm prevention, crystal violet, 96-well plate; type: cell-based; details: peptide 100 ng/ml, added simultaneously, 24 h, 37° C.
Positions of bridges follow the written chain, without caps; N, C: chain ends. No end group written: not given here.
Threshold check on Biofilm prevention (%): at or above 80% gives true (1), strictly below gives false (0).

> print(dat)
                        biopolymer.sequence   category
1  CSVPFDYNLYSNWC [SelagZ-cyc] (disulfide 1-14 (inferred))   true (1)
2  CTVNSFDYDWYNVC (disulfide 1-14 (inferred)) [AnoliZ-cyc]   true (1)
3  CRINSFDYDWYNVC (disulfide 1-14 (inferred)) [TetraoZ-cyc]  false (0)
4  CRVESFNYDWYNVC (disulfide 1-14 (inferred)) [NilotiZ-cyc]   true (1)
5  CSVPFDYNLYSNWC [PhyscoZ-cyc] (also: cyclised)   true (1)
6  CSAPYNFNFYSNWC (disulfide 1-14 (inferred)) [EchoZ-cyc]   true (1)
7  CTVHSFDYDWYNVC (disulfide 1-14 (inferred)) [CapraZ-cyc]  false (0)
8  CNVHSFDYDWYNVC (disulfide 1-14 (inferred)) [CanisZ-cyc]   true (1)
9  CSELSSFNFDWYNVC (disulfide 1-15 (inferred)) [CionaZ-S-cyc]  false (0)

====

tested on: Pseudomonas aeruginosa (ATCC27853); test: Biofilm detachment, crystal violet, 96-well plate; format: cell-based; conditions: peptide 100 ng/ml, added after adhesion
Positions of bridges follow the written chain, without caps; N, C: chain ends. No end group written: not given here.
The reader will find reported Detachment (%) (100 ng/ml) values listed item by item below.
Reported endpoint: Detachment (%) (100 ng/ml)

> print(dat)
                         biopolymer.sequence  experimental.value
 1  CTVNSFDYDWYNVC (disulfide 1-14 (inferred)) [AnoliZ-cyc]                  90
 2  CSVPFDYNLYSNWC [PhyscoZ-cyc] (also: cyclised)                  75
 3  CSVPFDYNLYSNWC [SelagZ-cyc] (disulfide 1-14 (inferred))                  67
 4  CNVHSFDYDWYNVC (disulfide 1-14 (inferred)) [CanisZ-cyc]                  72
 5  CSAPYNFNFYSNWC (disulfide 1-14 (inferred)) [EchoZ-cyc]                  65
 6  CTVHSFDYDWYNVC (disulfide 1-14 (inferred)) [CapraZ-cyc]                  65
 7  CSELSSFNFDWYNVC (disulfide 1-15 (inferred)) [CionaZ-S-cyc]                  78
 8  CSRYSSFDYDWYNVC (disulfide 1-15 (inferred)) [XenoZ-S-cyc]                  30
 9  CKVNSFDYDWYNVC (disulfide 1-14 (inferred)) [MeleagZ-cyc]                  65
10  CRVESFDFDWYNIC (disulfide 1-14 (inferred)) [SalmoZ-cyc]                  80
11  CRVESFNYDWYNVC (disulfide 1-14 (inferred)) [NilotiZ-cyc]                  40
